Molecular target: DPAP1 (Plasmodium falciparum, UniProt Q8IIJ9)
Sequence (Q8IIJ9 whole entry, looked up): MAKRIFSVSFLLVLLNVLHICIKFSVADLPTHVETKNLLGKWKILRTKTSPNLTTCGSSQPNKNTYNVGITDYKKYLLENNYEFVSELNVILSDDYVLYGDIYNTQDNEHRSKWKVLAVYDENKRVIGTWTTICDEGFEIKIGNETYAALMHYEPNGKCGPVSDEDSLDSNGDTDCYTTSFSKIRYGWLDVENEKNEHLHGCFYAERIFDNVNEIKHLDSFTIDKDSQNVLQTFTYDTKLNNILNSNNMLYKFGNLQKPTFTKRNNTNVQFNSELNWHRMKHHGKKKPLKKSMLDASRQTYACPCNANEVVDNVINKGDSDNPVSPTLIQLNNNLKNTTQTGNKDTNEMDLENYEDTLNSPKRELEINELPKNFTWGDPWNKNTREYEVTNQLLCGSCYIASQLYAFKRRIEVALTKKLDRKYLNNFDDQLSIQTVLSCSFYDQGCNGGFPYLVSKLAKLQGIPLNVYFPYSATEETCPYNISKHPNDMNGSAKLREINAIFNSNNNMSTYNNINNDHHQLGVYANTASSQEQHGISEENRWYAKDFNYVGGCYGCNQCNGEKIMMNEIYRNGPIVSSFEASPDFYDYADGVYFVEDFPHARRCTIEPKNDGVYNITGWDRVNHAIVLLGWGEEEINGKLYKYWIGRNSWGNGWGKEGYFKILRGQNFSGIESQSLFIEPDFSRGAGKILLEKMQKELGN
Experiment: primary screen, percent inhibition; higher = more effect of the substance;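 note: 30 min substrate incubation versus DMSO and 10 µM JCP410 controls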
Design: species or system P. falciparum D10 trophozoite lysates; single well
In all, about 110,000 compounds went through this assay and about 230 (0.21%) showed an effect of 50% or more. This excerpt belongs to a sample that is enriched for strong results.
# key: entry, value: % Inhibition @ 10 uM

[
  {
    "compound": "CS(=O)(=O)c1sc2nc(-c3cccs3)cc(-c3ccccc3)c2c1N",
    "% Inhibition @ 10 uM / %": 64.2
  },
  {
    "compound": "Cn1c2ccccc2c2cnn(CC(=O)N3CCN(c4ccccn4)CC3)c(=O)c21",
    "% Inhibition @ 10 uM / %": 4.53
  },
  {
    "compound": "c1cncc(C(c2c[nH]c3ccccc23)c2c[nH]c3ccccc23)c1",
    "% Inhibition @ 10 uM / %": 92.4
  },
  {
    "compound": "CC1CCN(C(=O)CCN2C(=O)c3ccccc3C2=O)CC1",
    "% Inhibition @ 10 uM / %": 2.06
  },
  {
    "compound": "Cn1nc(C(=O)NCc2ccco2)c2c1-c1ccccc1SC2",
    "% Inhibition @ 10 uM / %": 30.8
  },
  {
    "compound": "CCOC(=O)/C=C(\\C)N1N=C2c3ccc(OC)cc3CCC2C1c1ccc(F)cc1 (stereo not drawn)",
    "% Inhibition @ 10 uM / %": -1.77
  },
  {
    "compound": "CN(C1CCCCC1)S(=O)(=O)c1ccc(C(=O)Nc2nc(-c3ccccn3)cs2)cc1",
    "% Inhibition @ 10 uM / %": -1.4
  },
  {
    "compound": "CCc1cccc(C)c1NC(=O)c1cc(OC)cc(OC)c1",
    "% Inhibition @ 10 uM / %": 15.2
  },
  {
    "compound": "Cn1nc(C(=O)NCc2ccc3c(c2)OCO3)c2c1-c1ccccc1S(=O)(=O)C2",
    "% Inhibition @ 10 uM / %": -3.8
  },
  {
    "compound": "Cn1nc(C(=O)NCCc2ccccc2)c2c1-c1ccccc1SC2",
    "% Inhibition @ 10 uM / %": -0.495
  },
  {
    "compound": "CCOC(=O)/C=C(\\C)N1N=C2c3cc(OC)ccc3CCC2C1c1ccc(F)cc1 (stereo not drawn)",
    "% Inhibition @ 10 uM / %": 6.33
  },
  {
    "compound": "Cc1cc(C)nc(SC(=O)c2ccc(Cl)cc2Cl)n1",
    "% Inhibition @ 10 uM / %": -5.13
  },
  {
    "compound": "CCc1[nH]c2ccccc2c1C(C)c1cccnc1 (stereo not drawn)",
    "% Inhibition @ 10 uM / %": -4.49
  },
  {
    "compound": "CC1(C)Cc2c(c(S)sc(=N)c2C#N)CO1",
    "% Inhibition @ 10 uM / %": 8.27
  },
  {
    "compound": "COc1ccc(C(=O)Sc2nc(C)cc(C)n2)cc1",
    "% Inhibition @ 10 uM / %": 54.6
  }
]

====

Target: DPAP1 (Plasmodium falciparum)
Assay: primary screen, percent inhibition; read by cleavage of a fluorogenic dipeptide substrate; higher = more effect of the substance
Design: species or system P. falciparum D10 trophozoite lysates; single well
The campaign covered roughly 110,000 compounds. About 230 (0.21%) showed an effect of 50% or more. What follows is part of a selection rich in strong results, with near analogues and random picks from the rest.
Quick reference for % Inhibition @ 10 uM among some compounds

[
  {
    "compound": "c1ccc(Cc2c[nH]c3ccccc23)cc1",
    "systemName": "DPAP1 (Plasmodium falciparum)",
    "% Inhibition @ 10 uM, %": 0.736
  },
  {
    "compound": "CC(C)CC(=O)Nc1ccc(-c2nc3cc(Cl)ccc3o2)cc1",
    "systemName": "DPAP1 (Plasmodium falciparum)",
    "% Inhibition @ 10 uM, %": -1.57
  },
  {
    "compound": "CCOC(=O)C1=CN(C)C=C(C(=O)OCC)C1c1ccc(C(C)C)cc1",
    "systemName": "DPAP1 (Plasmodium falciparum)",
    "% Inhibition @ 10 uM, %": -1.48
  },
  {
    "compound": "COc1ccc2c(c1)cc1c(=O)n(CC(=O)NCc3cccc(OC)c3OC)nc(C)n12",
    "systemName": "DPAP1 (Plasmodium falciparum)",
    "% Inhibition @ 10 uM, %": 99.1
  },
  {
    "compound": "CC1CCCCN1CCNc1ncnc2onc(-c3ccc(Cl)cc3)c12 (stereo not shown)",
    "systemName": "DPAP1 (Plasmodium falciparum)",
    "% Inhibition @ 10 uM, %": -3.95
  },
  {
    "compound": "CCOc1ccc(C2CC(=O)N3CN(CCc4ccccc4)CSC3=C2C#N)cc1 (stereo not shown)",
    "systemName": "DPAP1 (Plasmodium falciparum)",
    "% Inhibition @ 10 uM, %": 71.1
  },
  {
    "compound": "CC1(C)CC(=O)C2=C(C1)N(c1nc[nH]n1)C(N)=C(C#N)C2c1cccc(Cl)c1 (stereo not shown)",
    "systemName": "DPAP1 (Plasmodium falciparum)",
    "% Inhibition @ 10 uM, %": 5.48
  },
  {
    "compound": "C(=C\\c1ccccc1)/CN1CCN(C2CCN(CCc3ccccc3)CC2)CC1",
    "systemName": "DPAP1 (Plasmodium falciparum)",
    "% Inhibition @ 10 uM, %": 97.7
  },
  {
    "compound": "c1ccc2c(Cc3nn[nH]n3)c[nH]c2c1",
    "systemName": "DPAP1 (Plasmodium falciparum)",
    "% Inhibition @ 10 uM, %": 85
  },
  {
    "compound": "CCOc1ccc(C2CC(=O)N3CN(Cc4ccccc4)CSC3=C2C#N)cc1 (stereo not shown)",
    "systemName": "DPAP1 (Plasmodium falciparum)",
    "% Inhibition @ 10 uM, %": 48.5
  }
]
